target: UniProt P79208; experiment: biochemical; type: biochemical
Sequence (P79208 17-603): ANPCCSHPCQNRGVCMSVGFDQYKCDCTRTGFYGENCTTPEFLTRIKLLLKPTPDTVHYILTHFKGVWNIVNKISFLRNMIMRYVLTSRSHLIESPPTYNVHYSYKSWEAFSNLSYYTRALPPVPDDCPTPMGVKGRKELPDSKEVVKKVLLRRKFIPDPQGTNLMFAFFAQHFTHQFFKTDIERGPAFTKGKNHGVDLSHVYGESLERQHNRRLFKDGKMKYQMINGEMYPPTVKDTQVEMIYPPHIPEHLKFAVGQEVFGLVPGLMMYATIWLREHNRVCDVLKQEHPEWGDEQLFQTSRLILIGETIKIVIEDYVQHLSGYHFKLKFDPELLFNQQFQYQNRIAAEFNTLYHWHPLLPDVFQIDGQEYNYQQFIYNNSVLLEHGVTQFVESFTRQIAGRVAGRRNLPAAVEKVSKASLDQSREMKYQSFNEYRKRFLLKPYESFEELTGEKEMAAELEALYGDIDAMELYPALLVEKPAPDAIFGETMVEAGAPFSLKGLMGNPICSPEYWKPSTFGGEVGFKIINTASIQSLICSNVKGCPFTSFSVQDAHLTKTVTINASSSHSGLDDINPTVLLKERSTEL
measured_endpoint: IC50 (nM)
A number alone suffices; assume nM.

Problem: Input `NS(=O)(=O)c1ccc(-c2c(-c3ccccc3)noc2CO[N+](=O)[O-])cc1` , output reported IC50.
Result: 1200

* * *

pIC50: recorded values
molecular target: ovine COX-1 (Ovis aries); experiment: biochemical; conditions: ovine COX-1
Sequence (P05979 25-600): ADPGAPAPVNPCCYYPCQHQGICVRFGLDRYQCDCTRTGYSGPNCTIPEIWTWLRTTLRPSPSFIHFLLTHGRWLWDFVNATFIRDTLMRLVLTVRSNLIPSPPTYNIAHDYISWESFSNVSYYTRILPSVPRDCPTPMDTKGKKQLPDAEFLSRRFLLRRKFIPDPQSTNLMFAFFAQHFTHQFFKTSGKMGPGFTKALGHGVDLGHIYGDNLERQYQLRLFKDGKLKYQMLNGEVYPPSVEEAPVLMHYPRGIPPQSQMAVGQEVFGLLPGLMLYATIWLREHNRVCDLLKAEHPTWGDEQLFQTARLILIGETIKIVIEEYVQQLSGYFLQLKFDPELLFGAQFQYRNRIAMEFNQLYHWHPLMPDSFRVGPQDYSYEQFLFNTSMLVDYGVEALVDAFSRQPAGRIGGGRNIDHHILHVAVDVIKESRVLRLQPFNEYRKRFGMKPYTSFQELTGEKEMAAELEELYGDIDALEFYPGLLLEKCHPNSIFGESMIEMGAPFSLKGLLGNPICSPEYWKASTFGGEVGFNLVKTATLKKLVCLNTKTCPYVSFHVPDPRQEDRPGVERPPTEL
pIC50: −log10 of the molar value.

Problem: GET pIC50 | system: ovine COX-1 (Ovis aries) | item: Cc1onc(-c2ccccc2)c1-c1ccc(S(=O)(=O)NC(=O)CCC(=O)OCCC2(SN=O)CCN(C)CC2)cc1.O=C(O)CC(O)(CC(=O)O)C(=O)O [Example 3g, Citrate Salt]
Result: < 3.52

Problem: GET pIC50 | system: ovine COX-1 (Ovis aries) | item: NS(=O)(=O)c1ccc(-c2c(-c3ccccc3)noc2CO[N+](=O)[O-])cc1 [Example 2b]
Result: < 3.52

Problem: GET pIC50 | system: ovine COX-1 (Ovis aries) | item: NS(=O)(=O)c1ccc(-c2c(-c3ccccc3)noc2CO)cc1 [Example 2a, reference compound]
Result: < 3.52

Problem: GET pIC50 | system: ovine COX-1 (Ovis aries) | item: CS(=O)(=O)c1ccc(-c2nc3cc(CO)ccn3c2-c2ccc(F)cc2)cc1 [Example 5a, reference compound]
Result: < 3.52

Problem: GET pIC50 | system: ovine COX-1 (Ovis aries) | item: NS(=O)(=O)c1ccc(-n2nc(CO[N+](=O)[O-])cc2-c2ccc(Cl)cc2)cc1 [Example 1b]
Result: 3.72
